Kindly supply the reported selectivity ratio values for the records listed here.
# Protocol notes: Selectivity index, ratio of IC50 for cytotoxicity against rat L6 cells to IC50 for antiplasmodial activity against chloroquine and pyrimethamine resistant Plasmodium falciparum K1 infected in human red blood cells
# Type: toxicity, cell-based
# Details: read-out: Selectivity Index

[[record]]
structure_notation = "CO/N=C(\\N)c1cccc(Cc2ccc(Cc3ccc(/C(N)=N\\OC)cc3)cc2)c1"
measured_parameter = "selectivity ratio"
result = "> 3.4"

[[record]]
structure_notation = "CO/N=C(\\N)c1ccc(Oc2cccc(Oc3ccc(/C(N)=N\\OC)cc3)n2)cc1"
measured_parameter = "selectivity ratio"
result = 12.3

[[record]]
structure_notation = "N=C(N)c1ccc(Oc2cccc(Oc3ccc(C(=N)N)cc3)n2)cc1"
measured_parameter = "selectivity ratio"
result = 307

[[record]]
structure_notation = "N=C(N)c1ccc(Cc2ccc(-c3ccc(C(=N)N)cc3)cc2)cc1"
measured_parameter = "selectivity ratio"
result = 1330


API: the following record is the query input.
Task: Look up selectivity ratio for this compound: N=C(N)c1ccc(Cc2ccc(Cc3ccc(C(=N)N)cc3)o2)cc1
Result: 1390
